FYI, the data here is from ChEMBL document CHEMBL4513216.

# ASSAY INFO: Toxicity liver stage against HepG2, at 10uM
# Format: cell-based
# Design: test concentration 10 uM, cell line HepG2-A16-CD81EGFP
# CONDITIONS: human, HepG2-A16-CD81EGFP cells; read-out: INHIBITION
MEASURED PROPERTY: cytotoxicity at 10 µM (%)
Write the answer as a number in %, unit excluded.

See these solved cases before continuing.
COc1cccc(CNC(=O)CN2CCCC(Cn3cncn3)C2)c1 (centres undefined) ... -18.2
Cc1noc(C)c1C(=O)N(C)C(C)c1cccnc1 (centres undefined) ... 0.363
CCC(=O)N1CCCC(c2nc(N(C)C)ncc2-c2ccc(F)cc2)C1 (centres undefined) ... 28.1
CCc1nnc2n1CCN(C(=O)c1ccc3[nH]cnc3c1)C2 ... -19.1
COc1ccccc1C1(CNc2cn[nH]c(=O)c2Cl)CCOCC1 ... 0.152
Cn1cc(CNC2CCc3c(ccc(=O)n3Cc3cccnc3)C2)cn1 (centres undefined) ... -108

Data point: CCc1nc(NS(=O)(=O)c2cc(C)c(F)cc2Cl)no1 ; cytotoxicity at 10 µM = 15.8

Input Cc1nc(CN2CCCC(NCc3csc(C(C)(C)C)n3)C2)no1 (centres undefined) . Output cytotoxicity at 10 µM: 0.238

* * *

# ASSAY INFO: Toxicity liver stage against HepG2, at 10uM
# Format: cell-based
# Design: test concentration 10 uM, cell line HepG2-A16-CD81EGFP
# CONDITIONS: human, HepG2-A16-CD81EGFP cells; read-out: INHIBITION
MEASURED PROPERTY: cytotoxicity at 10 µM (%)
Report the value in % with no unit label.

These recorded examples may help you get a feel for the data.
COc1ccc(CN2CCN(C(C)=O)CC2)cc1SC(F)(F)F ... 7.31
Cc1ccc(-c2noc(CN3CCOC(Cn4cncn4)C3)n2)cc1 (stereo unspecified) ... -4.15
Cc1noc(C)c1C(=O)N1C[C@@H]2COC[C@]2(COc2ccccn2)C1 ... 2.47
Cn1cc(-c2nnn3c2COC(CNCc2ccncc2)C3)cn1 (stereo unspecified) ... 0.887
COc1c(C2CCCN2CCOc2ccccc2C#N)c(C)nn1C (stereo unspecified) ... 2.59

The molecule COc1ccc(Cl)cc1CCNC(=O)NCc1ccncc1 showed cytotoxicity at 10 µM equal to 2.53

Per the record, COc1ccc(C(=O)N2CCCCC2Cn2cccn2)c(F)c1 (stereo unspecified) has cytotoxicity at 10 µM of -5.38

Per the record, Cc1cs/c(=N\C(=O)Cn2nc(N3CCSCC3)ccc2=O)[nH]1 has cytotoxicity at 10 µM of 2.33

So, O=C(O)c1nnn(Cc2cccc(C(F)(F)F)c2)c1-c1ccccn1 ? Its cytotoxicity at 10 µM was 2.27

cytotoxicity at 10 µM reading for COc1cn(CC(=O)N2CCN(c3ccc(F)cc3)CC2)c(C)cc1=O : 2.29

Per the records, this molecule ( CC1CCN(C(=O)C2CCN(S(C)(=O)=O)CC2)c2ccccc21 (stereo unspecified) ) has cytotoxicity at 10 µM equal to -9.28

* * *

Readings of cytotoxicity at 10 µM for the listed compounds
# ASSAY INFO: Toxicity liver stage against HepG2, at 10uM
# Assay type: cell-based
# Design: test concentration 10 uM, cell line HepG2-A16-CD81EGFP
# CONDITIONS: human, HepG2-A16-CD81EGFP cells; read-out: INHIBITION
// note: answer is a bare numeric in %

Worked examples, 5 compounds total:
COc1cccc2c1ccn2CCNC(=O)CC(C)C ... 4.38
Cc1cc(S(=O)(=O)Nc2onc(C)c2C)c(C)s1 ... -4.96
CCC(O)CN1CCN(C(=O)Cc2nc(-c3ccco3)oc2C)CC1 (configuration not stated) ... -2.94
CCn1cc(CNC(=O)c2nn(CC)cc2Br)cn1 ... 47.1
CCN(CC)C(=O)Cn1ccc2cc(NC(=O)NC3CC3)ccc21 ... -9.01

Input Cc1cc(C)n(C2CCCN(C(=O)c3ccc(F)c(F)c3)C2)n1 (configuration not stated) . Output cytotoxicity at 10 µM: -4.91

Summary for this compound, CCn1cc(CN2CCCN(C(=O)c3ccc(C)nc3)CC2)cn1 : cytotoxicity at 10 µM is -10.4

Recorded result, CN(Cc1ccc(F)cc1)Cc1nc(-c2cnccn2)no1 , cytotoxicity at 10 µM: 1.27
